Source of measurements: the supplement of paper PMC5908809

Exercise: state measured percent inhibition of viability for each of the molecules provided.
# System: IMC-1 (IL-2 20 ng/mL);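 also: normalised to DMSO-only wells as negative and benzethonium chloride as positive control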
# experiment-summary: percent inhibition of viability; higher = more inhibition
# run-conditions: 72 h; 10 nM
Give the value in % but do not write % after it.

// recorded percent inhibition of viability for N#CC[C@H](C1CCCC1)n1cc(-c2ncnc3[nH]ccc23)cn1 [Ruxolitinib] (max concentration tested 10000 nM) : -5.31

Just so you know, measured percent inhibition of viability for CNC(=O)c1ccc(N2C(=S)N(c3ccc(C#N)c(C(F)(F)F)c3)C(=O)C23CCC3)cc1F [RD162] (max concentration tested 10000 nM) came out at -2.87

Recorded result, CN1CCC(CNc2ccc3ncc(-c4cccc(OC(F)(F)F)c4)n3n2)CC1 [SGI-1776] (max concentration tested 10000 nM) , percent inhibition of viability: -0.64

Sample Nc1nc(Cl)nc2c1ncn2[C@H]1C[C@H](O)[C@@H](CO)O1 [Cladribine] (max concentration tested 1000 nM) ; percent inhibition of viability observed: -8.55

Form field percent inhibition of viability, entry Oc1ccc2c(c1)CC[C@H](c1ccccc1)[C@@H]2c1ccc(OCCN2CCCC2)cc1 [Lasofoxifene] (max concentration tested 1000 nM) : 4.03

The value of percent inhibition of viability measured for the molecule CC(C)[C@H]1C(=O)N[C@@H](CCCNC(=N)N)C(=O)NCC(=O)N[C@@H](CC(=O)O)C(=O)N[C@H](Cc2ccccc2)C(=O)N1C [Cilengitide] (max concentration tested 10000 nM) turned out to be -2.67

Data point: CC1(C)CNc2cc(NC(=O)c3cccnc3NCc3ccncc3)ccc21 [Motesanib] (max concentration tested 10000 nM) ; percent inhibition of viability = -4.04

// field: percent inhibition of viability; key: CNC(=O)c1cc(COc2nnc(Nc3ccc(Cl)cc3)c3ccoc23)ccn1 [Telatinib] (max concentration tested 10000 nM) ; value = 6.77

Documented percent inhibition of viability of COc1cc2c(Oc3ccc4[nH]c(C)cc4c3F)ncnc2cc1OCCCN1CCCC1 [Cediranib] (max concentration tested 1000 nM) : -0.8

# percent inhibition of viability (molecule: Cn1cc(-c2ccc3nnc(C(F)(F)c4ccc5ncccc5c4)n3n2)cn1 (max concentration tested 10000 nM) ) is 3.66

Lab book: percent inhibition of viability of Nc1cc(C(F)(F)F)c(-c2cc(N3CCOCC3)nc(N3CCOCC3)n2)cn1 [Buparlisib] (max concentration tested 10000 nM) noted as -1.36

The recorded percent inhibition of viability for entry COCC(=O)NC/C=C/c1ccc2ncnc(Nc3ccc(Oc4ccc(C)nc4)c(C)c3)c2c1 (max concentration tested 10000 nM) equals -1.82

What the record says about Nc1nc2[nH]cc(CCc3ccc(C(=O)N[C@@H](CCC(=O)O)C(=O)O)cc3)c2c(=O)[nH]1 [Pemetrexed] (max concentration tested 10000 nM) : percent inhibition of viability is -0.76

Documented percent inhibition of viability of N#Cc1ccc(COC[C@H]2O[C@@H](n3c(NCc4ccc(Cl)c(Cl)c4)nc4c(N)ncnc43)[C@H](O)[C@@H]2O)cc1 (max concentration tested 10000 nM) : -0.39

Memo: CNC(=O)c1cccc(-c2ccc3c(N4CCOC[C@@H]4C)nc(N4CCOC[C@@H]4C)nc3n2)c1 [AZD2014] (max concentration tested 10000 nM) , reported percent inhibition of viability: -10.1

Measured percent inhibition of viability of O=C(O)C1(C(=O)O)CCC1.[NH2-].[NH2-].[Pt+2] [Carboplatin] (max concentration tested 100000 nM) : -6.21

Note to self: percent inhibition of viability recorded for C[C@@H](Nc1cc(F)cc(F)c1)c1cc(C(=O)N(C)C)cc2c(=O)cc(N3CCOCC3)oc12 [AZD-8186] (max concentration tested 1000 nM) was -9.6

Lab note: O=C(Nc1cccc(Nc2ncc(Br)c(NCCc3cnc[nH]3)n2)c1)N1CCCC1 [BX-912] (max concentration tested 10000 nM) gave percent inhibition of viability of -6.68

Measured percent inhibition of viability of C#Cc1cccc(Nc2ncnc3cc(OC)c(OCCCCCCC(=O)NO)cc23)c1 [CUDC-101] (max concentration tested 10000 nM) : -5.13

Note to self: percent inhibition of viability recorded for Cc1ccc(-c2cc(C(F)(F)F)nn2-c2ccc(S(N)(=O)=O)cc2)cc1 [Celecoxib] (max concentration tested 10000 nM) was 4.12

# molecule O=C(O)CCCCC(CCSCc1ccccc1)SCc1ccccc1 (centres undefined) [CPI-613] (max concentration tested 10000 nM) ; its percent inhibition of viability = -1.62

Reported percent inhibition of viability of O=C(Nc1cccc(C(F)(F)F)c1)Nc1cc(S(=O)(=O)NC2CC2)ccc1-c1ccsc1 [AGI-6780] (max concentration tested 10000 nM) : -6.4

Looking up C[C@]1(O)C[C@@H](c2nc(-c3ccc4ccc(-c5ccccc5)nc4c3)c3c(N)nccn32)C1 [Linsitinib] (max concentration tested 10000 nM) , I see its percent inhibition of viability listed as -2.97

Sure, the documented percent inhibition of viability for COc1cc2c(NC3CCN(C(C)C)CC3)nc(N3CCC(F)(F)CC3)nc2cc1OCCCN1CCCC1 [UNC0642] (max concentration tested 10000 nM) is -4.05
